- target entity: PIK3CB;PIK3CG;PIK3CD;PIK3CA (human)
- test protocol: Inhibition of PIK3CA/PIK3CB/PIK3CD/PIK3CG Kinase Activity
pIC50: −log10 of the molar value.
readout: pIC50

compound=COCCc1ccc(OC)cc1Nc1nc2ccccc2nc1NS(=O)(=O)C1CCNCC1 reported_value=7.01
compound=COc1ccc(CC2CCN(C)CC2)c(Nc2nc3ccccc3nc2NS(=O)(=O)c2cn(C)cn2)c1 reported_value=7.37
compound=COc1ccc(CC2CCN(C(C)=O)CC2)c(Nc2nc3ccccc3nc2NS(=O)(=O)c2cn(C)cn2)c1 reported_value=7.05
compound=COc1ccc(CCS(C)(=O)=O)c(Nc2nc3ccccc3nc2NS(=O)(=O)CCCS(C)(=O)=O)c1 reported_value=6.46
compound=COc1ccc(CCO)c(Nc2nc3ccccc3nc2NS(=O)(=O)c2c(C)noc2C)c1 reported_value=6.54

1 = COc1ccc(CC2CCN(C(=O)CN(C)C)CC2)c(Nc2nc3ccccc3nc2NS(=O)(=O)c2cn(C)cn2)c1
2 = COc1cc(Nc2nc3ccccc3nc2NS(=O)(=O)CCCS(C)(=O)=O)cc(C(=O)NCCO)c1
3 = COc1ccc(CN2CCN(C)CC2)c(Nc2nc3ccccc3nc2NS(=O)(=O)c2cccnc2)c1
4 = COc1ccc(CC2CCS(=O)(=O)CC2)c(Nc2nc3ccccc3nc2NS(=O)(=O)c2cn(C)cn2)c1
Problem: I would appreciate it if you could sort these 4 compounds by pIC50, starting from the smallest number. Sort and list the labels as requested.
Solution: 2, 1, 3, 4
(2: 6.46, 1: 7.00, 3: 7.31, 4: 7.52)

I = COc1ccc(CCCO)c(Nc2nc3ccccc3nc2NS(=O)(=O)c2cn(C)c(CS(C)(=O)=O)n2)c1
II = COc1ccc(CC2CCOCC2)c(Nc2nc3ccccc3nc2NS(=O)(=O)c2ccc(CN(C)C)cc2)c1
Problem: Parameter check: reported pIC50 is higher for which label, I or II ? // return label of chosen record
Solution: II

P = COc1ccc(CC2CCSCC2)c(Nc2nc3ccccc3nc2NS(=O)(=O)c2cn(C)cn2)c1
Q = COc1ccc(CC2CCOCC2)c(Nc2nc3ccccc3nc2NS(=O)(=O)c2cn(C)cn2)c1
Problem: I'd appreciate it if you could identify which of P and Q has the greater pIC50. Let me know the label of the one you choose.
Solution: Q
